Values compiled from ChEMBL document CHEMBL2424574.

target: Glutamate receptor ionotropic, NMDA 2C (Rattus norvegicus, UniProt P35439+Q00961); experiment: Negative allosteric modulation of recombinant rat GluN2C receptor expressed in Xenopus laevis oocytes by two-electrode voltage clamp method
Sequence (Q00961 whole entry, one chain of several): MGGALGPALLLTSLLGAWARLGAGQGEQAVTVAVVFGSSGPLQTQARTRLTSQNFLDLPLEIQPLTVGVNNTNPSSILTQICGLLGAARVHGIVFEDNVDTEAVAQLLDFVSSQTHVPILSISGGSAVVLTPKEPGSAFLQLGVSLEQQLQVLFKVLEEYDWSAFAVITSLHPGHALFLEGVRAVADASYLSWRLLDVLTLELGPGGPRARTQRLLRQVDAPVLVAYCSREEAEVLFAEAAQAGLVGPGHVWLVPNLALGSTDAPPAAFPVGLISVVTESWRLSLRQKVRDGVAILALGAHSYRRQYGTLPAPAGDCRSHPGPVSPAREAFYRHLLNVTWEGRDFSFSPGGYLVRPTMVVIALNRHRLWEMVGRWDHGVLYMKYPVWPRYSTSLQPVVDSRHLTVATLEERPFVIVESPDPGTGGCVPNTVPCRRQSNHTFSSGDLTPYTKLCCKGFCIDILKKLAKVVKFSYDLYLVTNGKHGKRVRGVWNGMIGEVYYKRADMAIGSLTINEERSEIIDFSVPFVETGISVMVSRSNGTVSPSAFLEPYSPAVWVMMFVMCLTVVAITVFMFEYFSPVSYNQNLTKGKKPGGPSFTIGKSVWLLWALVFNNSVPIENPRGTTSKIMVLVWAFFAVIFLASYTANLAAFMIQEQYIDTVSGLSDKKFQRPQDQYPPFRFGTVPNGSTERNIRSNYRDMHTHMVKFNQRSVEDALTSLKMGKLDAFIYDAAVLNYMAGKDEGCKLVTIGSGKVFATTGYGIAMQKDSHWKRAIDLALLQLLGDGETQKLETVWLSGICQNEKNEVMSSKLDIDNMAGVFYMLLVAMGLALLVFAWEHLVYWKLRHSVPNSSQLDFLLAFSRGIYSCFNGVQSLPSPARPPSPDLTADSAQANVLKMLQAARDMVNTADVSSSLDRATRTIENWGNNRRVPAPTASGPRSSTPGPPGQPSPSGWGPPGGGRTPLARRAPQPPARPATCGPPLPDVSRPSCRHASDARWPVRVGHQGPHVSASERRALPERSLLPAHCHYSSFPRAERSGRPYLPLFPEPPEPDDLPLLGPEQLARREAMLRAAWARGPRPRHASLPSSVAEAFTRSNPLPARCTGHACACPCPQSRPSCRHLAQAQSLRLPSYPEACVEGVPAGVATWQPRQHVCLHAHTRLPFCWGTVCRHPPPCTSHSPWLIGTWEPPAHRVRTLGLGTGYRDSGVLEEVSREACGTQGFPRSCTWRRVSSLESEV
This section presents compounds with their documented pIC50 values.
Remember the convention: pIC50 equals -log10 of concentration in molar.

Consider the reported pIC50 for these compounds:
O=C(O)CCCC(=O)N1N=C(c2c(-c3ccccc3)c3cc(Cl)ccc3[nH]c2=O)CC1c1ccc([N+](=O)[O-])cc1 (stereo not drawn) :: 5.00
O=C(O)CCC(=O)N1N=C(c2c(-c3ccccc3)c3cc(Cl)ccc3[nH]c2=O)CC1c1ccc(Cl)cc1 (stereo not drawn) :: 5.26
O=C(O)CCC(=O)N1N=C(c2c(-c3ccc(F)c(F)c3)c3ccccc3[nH]c2=O)CC1c1ccc(Cl)cc1 (stereo not drawn) :: 6.11

For the next question, use this compound.
Q) I'd like to know its pIC50. The compound in question is O=C(O)CCC(=O)N1N=C(c2c(-c3ccc(Cl)cc3)c3ccccc3[nH]c2=O)CC1c1ccc(Br)cc1 (stereo not drawn)
A) 6.02

====

Reported pKi for target or system Kappa-type opioid receptor (Homo sapiens, UniProt P41145), by entry.
pKi: −log10 of the molar value.

O=C(O)CCC(=O)N1N=C(c2c(-c3ccc(Cl)cc3)c3ccccc3[nH]c2=O)CC1c1ccc(Cl)cc1 (racemic) :: < 5.00

For the next question, use this molecule.
Q) Write down the reported pKi of O=C(O)/C=C/C(=O)N1N=C(c2c(-c3ccc(Br)cc3)c3ccccc3[nH]c2=O)CC1c1ccc(Cl)cc1 (racemic) , test system: Kappa-type opioid receptor (Homo sapiens, UniProt P41145).
Sequence (P41145 whole entry): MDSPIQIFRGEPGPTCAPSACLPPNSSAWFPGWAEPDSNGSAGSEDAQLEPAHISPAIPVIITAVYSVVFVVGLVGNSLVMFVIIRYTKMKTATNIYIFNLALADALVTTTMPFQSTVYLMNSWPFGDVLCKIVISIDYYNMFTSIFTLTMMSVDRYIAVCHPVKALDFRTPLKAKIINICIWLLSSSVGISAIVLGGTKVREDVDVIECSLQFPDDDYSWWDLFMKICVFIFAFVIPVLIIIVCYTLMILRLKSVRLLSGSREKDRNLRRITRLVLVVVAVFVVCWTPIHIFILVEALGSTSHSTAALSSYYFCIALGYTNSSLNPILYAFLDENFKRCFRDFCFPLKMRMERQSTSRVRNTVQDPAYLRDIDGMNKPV
A) < 5.00

====

molecular target: Glutamate receptor ionotropic, NMDA 2D (Rattus norvegicus, UniProt P35439+Q62645); assay: Negative allosteric modulation of recombinant rat GluN2D receptor expressed in Xenopus laevis oocytes by two-electrode voltage clamp method
Sequence (Q62645 whole entry, one chain of several): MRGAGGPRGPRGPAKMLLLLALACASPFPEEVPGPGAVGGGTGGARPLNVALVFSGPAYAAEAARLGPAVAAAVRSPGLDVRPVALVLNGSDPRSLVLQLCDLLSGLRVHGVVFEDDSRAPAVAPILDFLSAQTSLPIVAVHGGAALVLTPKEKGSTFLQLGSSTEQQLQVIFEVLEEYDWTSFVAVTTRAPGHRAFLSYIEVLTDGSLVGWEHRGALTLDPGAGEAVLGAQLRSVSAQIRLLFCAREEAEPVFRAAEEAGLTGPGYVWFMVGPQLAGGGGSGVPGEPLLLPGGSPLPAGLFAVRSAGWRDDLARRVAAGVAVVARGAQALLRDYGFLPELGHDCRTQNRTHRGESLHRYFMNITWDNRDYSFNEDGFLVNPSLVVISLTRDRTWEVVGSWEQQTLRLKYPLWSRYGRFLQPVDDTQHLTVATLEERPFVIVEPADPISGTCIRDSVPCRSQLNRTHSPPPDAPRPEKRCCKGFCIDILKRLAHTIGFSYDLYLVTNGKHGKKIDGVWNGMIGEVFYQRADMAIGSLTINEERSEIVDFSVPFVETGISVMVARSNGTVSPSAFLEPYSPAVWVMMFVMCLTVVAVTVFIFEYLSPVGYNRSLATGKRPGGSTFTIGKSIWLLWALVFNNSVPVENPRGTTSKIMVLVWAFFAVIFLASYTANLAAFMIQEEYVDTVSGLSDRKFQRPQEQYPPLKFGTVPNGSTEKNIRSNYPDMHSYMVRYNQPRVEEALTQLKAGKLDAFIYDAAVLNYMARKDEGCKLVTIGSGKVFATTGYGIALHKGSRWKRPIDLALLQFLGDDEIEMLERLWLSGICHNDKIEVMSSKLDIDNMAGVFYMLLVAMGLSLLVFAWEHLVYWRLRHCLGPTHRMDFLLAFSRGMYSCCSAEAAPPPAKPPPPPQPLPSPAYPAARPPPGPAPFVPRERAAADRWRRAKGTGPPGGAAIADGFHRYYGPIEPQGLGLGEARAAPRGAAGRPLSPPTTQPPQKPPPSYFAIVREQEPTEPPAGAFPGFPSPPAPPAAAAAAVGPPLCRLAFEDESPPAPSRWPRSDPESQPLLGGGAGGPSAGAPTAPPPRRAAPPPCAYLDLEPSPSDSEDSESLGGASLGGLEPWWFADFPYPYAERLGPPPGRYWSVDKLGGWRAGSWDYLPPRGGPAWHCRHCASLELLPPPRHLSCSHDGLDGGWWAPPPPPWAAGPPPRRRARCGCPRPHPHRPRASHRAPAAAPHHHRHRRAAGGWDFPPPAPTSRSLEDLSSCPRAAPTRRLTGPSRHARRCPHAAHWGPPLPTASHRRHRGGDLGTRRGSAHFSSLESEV
MEASUREMENT LABEL: pIC50
Remember the convention: pIC50 equals -log10 of concentration in molar.

Q) I'd like to know its pIC50. The molecule in question is O=C(O)CCC(=O)N1N=C(c2c(-c3ccccc3)c3cc(Cl)ccc3[nH]c2=O)CC1c1ccccc1 (configuration not stated)
A) 4.06

Q) I'd like to know its pIC50. The molecule in question is O=C(O)CCC(=O)N1N=C(c2c(-c3ccccc3)c3cc(Cl)ccc3[nH]c2=O)CC1c1ccc2c(c1)OCO2 (configuration not stated)
A) 4.64

Q) I'd like to know its pIC50. The molecule in question is COC(=O)/C=C/C(=O)N1N=C(c2c(-c3ccc(Br)cc3)c3ccccc3[nH]c2=O)CC1c1ccc(Cl)cc1 (configuration not stated)
A) 4.02

====

target: Glutamate receptor ionotropic, NMDA 2D (Homo sapiens, UniProt O15399+Q05586); experiment: Inhibition of NMDA GluN2D receptor (unknown origin)
Sequence (O15399 whole entry, one chain of several): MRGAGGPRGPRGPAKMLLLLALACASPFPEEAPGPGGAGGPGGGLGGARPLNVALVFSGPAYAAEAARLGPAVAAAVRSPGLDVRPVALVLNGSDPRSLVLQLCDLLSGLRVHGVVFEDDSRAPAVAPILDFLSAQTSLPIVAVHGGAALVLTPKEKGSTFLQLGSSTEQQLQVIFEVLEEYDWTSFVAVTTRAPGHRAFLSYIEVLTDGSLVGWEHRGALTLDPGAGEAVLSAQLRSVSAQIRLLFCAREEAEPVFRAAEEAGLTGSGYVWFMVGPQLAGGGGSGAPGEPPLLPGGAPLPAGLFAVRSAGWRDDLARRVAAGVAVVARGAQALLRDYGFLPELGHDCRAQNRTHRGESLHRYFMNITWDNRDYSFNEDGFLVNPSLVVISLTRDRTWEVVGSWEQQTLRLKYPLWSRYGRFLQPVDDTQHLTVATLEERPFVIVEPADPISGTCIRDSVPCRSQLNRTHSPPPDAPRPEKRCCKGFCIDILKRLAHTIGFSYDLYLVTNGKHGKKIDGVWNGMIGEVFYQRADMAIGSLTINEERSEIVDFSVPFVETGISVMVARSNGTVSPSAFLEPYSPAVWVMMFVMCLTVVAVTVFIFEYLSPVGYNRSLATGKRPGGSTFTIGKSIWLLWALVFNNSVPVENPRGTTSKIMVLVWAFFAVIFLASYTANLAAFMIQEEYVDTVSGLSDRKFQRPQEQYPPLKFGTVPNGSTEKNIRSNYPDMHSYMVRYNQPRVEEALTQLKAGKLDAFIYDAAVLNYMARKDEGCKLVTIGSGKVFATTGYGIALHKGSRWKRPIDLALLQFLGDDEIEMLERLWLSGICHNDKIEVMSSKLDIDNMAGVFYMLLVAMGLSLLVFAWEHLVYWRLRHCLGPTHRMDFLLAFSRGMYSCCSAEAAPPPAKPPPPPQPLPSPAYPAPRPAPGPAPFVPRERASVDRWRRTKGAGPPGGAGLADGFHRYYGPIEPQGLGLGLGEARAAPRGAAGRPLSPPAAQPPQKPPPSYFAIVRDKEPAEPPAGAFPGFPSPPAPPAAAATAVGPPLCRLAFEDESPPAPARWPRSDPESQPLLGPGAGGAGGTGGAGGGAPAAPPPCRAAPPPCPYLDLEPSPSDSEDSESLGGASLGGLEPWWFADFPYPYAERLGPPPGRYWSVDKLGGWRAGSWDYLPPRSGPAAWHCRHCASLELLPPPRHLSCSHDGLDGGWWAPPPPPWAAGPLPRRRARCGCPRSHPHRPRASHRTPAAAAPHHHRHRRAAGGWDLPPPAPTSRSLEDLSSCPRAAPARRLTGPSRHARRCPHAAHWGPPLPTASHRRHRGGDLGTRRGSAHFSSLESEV
MEASUREMENT LABEL: pIC50
Remember the convention: pIC50 equals -log10 of concentration in molar.

Q) Write down the reported pIC50 of Cc1ccc2[nH]c(=O)c(C3=NN(C(=O)CCC(=O)O)C(c4ccc(Br)cc4)C3)c(-c3ccccc3)c2c1 (stereo unspecified) , test system: Glutamate receptor ionotropic, NMDA 2D (Homo sapiens, UniProt O15399+Q05586).
A) 5.57

====

This section presents molecules with their documented Ratio IC50 values.
species: Rattus norvegicus; assay: Selectivity ratio of IC50 for recombinant rat GluN2A receptor to IC50 for recombinant rat GluN2D receptor
Quick one: just the number, no unit, thanks!

Consider the reported Ratio IC50 for these molecules:
O=C(O)CCC(=O)N1N=C(c2c(-c3ccccc3)c3cc(Cl)ccc3[nH]c2=O)CC1c1ccc(F)cc1 (stereo unspecified) :: 9
O=C(O)CCCC(=O)N1N=C(c2c(-c3ccc(Br)cc3)c3ccccc3[nH]c2=O)CC1c1ccc(Cl)cc1 (stereo unspecified) :: 33
O=C(O)CCC(=O)N1N=C(c2c(-c3ccc(Cl)cc3)c3ccccc3[nH]c2=O)CC1c1ccc(Br)cc1 (stereo unspecified) :: 37
NC(=O)CCC(=O)N1N=C(c2c(-c3ccc(Cl)cc3)c3ccccc3[nH]c2=O)CC1c1ccc(Cl)cc1 (stereo unspecified) :: 31

Q) I'd like to know its Ratio IC50. The molecule in question is O=C(O)CCC(=O)N1N=C(c2c(-c3cc(F)cc(F)c3)c3ccccc3[nH]c2=O)CC1c1ccc(Cl)cc1 (stereo unspecified)
A) 26

Q) I'd like to know its Ratio IC50. The molecule in question is COc1ccc(-c2c(C3=NN(C(=O)CCC(=O)O)C(c4ccc(Cl)cc4)C3)c(=O)[nH]c3ccccc23)cc1 (stereo unspecified)
A) 27

Q) I'd like to know its Ratio IC50. The molecule in question is Cc1cccc(-c2c(C3=NN(C(=O)CCC(=O)O)C(c4ccc(Cl)cc4)C3)c(=O)[nH]c3ccccc23)c1 (stereo unspecified)
A) 13

Q) I'd like to know its Ratio IC50. The molecule in question is O=C(O)/C=C\C(=O)N1N=C(c2c(-c3ccccc3)c3cc(Cl)ccc3[nH]c2=O)CC1c1ccc(Br)cc1 (stereo unspecified)
A) 15

Q) I'd like to know its Ratio IC50. The molecule in question is O=C(O)CCC(=O)N1N=C(c2c(-c3ccc(Cl)cc3)c3ccccc3[nH]c2=O)CC1c1ccc(Cl)cc1 (racemic)
A) 48

Q) I'd like to know its Ratio IC50. The molecule in question is O=C(O)CCC(=O)N1N=C(c2c(-c3ccc(Cl)cc3)c3ccccc3[nH]c2=O)CC1c1ccc(F)cc1 (stereo unspecified)
A) 14

Q) I'd like to know its Ratio IC50. The molecule in question is O=C(O)CCC(=O)N1N=C(c2c(-c3ccc(Br)cc3)c3ccccc3[nH]c2=O)CC1c1ccccc1 (stereo unspecified)
A) 7

Q) I'd like to know its Ratio IC50. The molecule in question is O=C(O)CCC(=O)N1N=C(c2c(-c3ccc(F)cc3)c3ccccc3[nH]c2=O)CC1c1ccc(Cl)cc1 (stereo unspecified)
A) 36

Q) I'd like to know its Ratio IC50. The molecule in question is O=C(O)CCC(=O)N1N=C(c2c(-c3cccc(F)c3)c3ccccc3[nH]c2=O)CC1c1ccc(Cl)cc1 (stereo unspecified)
A) 67

====

This section presents molecules with their documented inhibition values.
target: Glutamate receptor ionotropic, NMDA 2B (Rattus norvegicus) (UniProt Q00960); assay: Negative allosteric modulation of recombinant rat GluN2B receptor expressed in Xenopus laevis oocytes at 100 uM by two-electrode voltage clamp method; format: cell-based; conditions: Oocyte

Q) I'd like to know its inhibition. The molecule in question is CN(C)c1ccc(C2CC(c3c(-c4ccccc4)c4cc(Cl)ccc4[nH]c3=O)=NN2C(=O)CCC(=O)O)cc1 (centres undefined)
A) < 30%

Q) I'd like to know its inhibition. The molecule in question is N#Cc1cccc(-c2c(C3=NN(C(=O)CCC(=O)O)C(c4ccc(Cl)cc4)C3)c(=O)[nH]c3ccccc23)c1 (centres undefined)
A) < 30%

Q) I'd like to know its inhibition. The molecule in question is COC(=O)/C=C/C(=O)N1N=C(c2c(-c3ccc(Br)cc3)c3ccccc3[nH]c2=O)CC1c1ccc(Cl)cc1 (centres undefined)
A) < 30%

Q) I'd like to know its inhibition. The molecule in question is N#Cc1ccc(-c2c(C3=NN(C(=O)CCC(=O)O)C(c4ccc(Cl)cc4)C3)c(=O)[nH]c3ccccc23)cc1 (centres undefined)
A) < 30%

====

target: Glutamate receptor ionotropic, NMDA 2A (Rattus norvegicus); assay: Negative allosteric modulation of recombinant rat GluN2A receptor expressed in Xenopus laevis oocytes at 100 uM by two-electrode voltage clamp method; format: cell-based; conditions: Oocyte
This section presents molecules with their documented inhibition values.

Consider the reported inhibition for these molecules:
O=C(O)CCC(=O)N1N=C(c2c(-c3ccccc3)c3cc(Cl)ccc3[nH]c2=O)CC1c1ccc2c(c1)OCO2 (stereo not drawn) :: < 30%
O=C(CCCF)N1N=C(c2c(-c3ccc(Cl)cc3)c3ccccc3[nH]c2=O)CC1c1ccc(Cl)cc1 (stereo not drawn) :: < 30%
N#Cc1cccc(-c2c(C3=NN(C(=O)CCC(=O)O)C(c4ccc(Cl)cc4)C3)c(=O)[nH]c3ccccc23)c1 (stereo not drawn) :: < 30%
COC(=O)c1ccc(C2CC(c3c(-c4ccccc4)c4cc(Cl)ccc4[nH]c3=O)=NN2C(=O)CCC(=O)O)cc1 (stereo not drawn) :: < 30%
O=C(O)CCC(=O)N1N=C(c2c(O)nc3ccc(Cl)cc3c2-c2ccccc2)CC1c1ccccc1 (stereo not drawn) :: < 30%
COC(=O)/C=C/C(=O)N1N=C(c2c(-c3ccc(Br)cc3)c3ccccc3[nH]c2=O)CC1c1ccc(Cl)cc1 (stereo not drawn) :: < 30%
O=C(O)CCC(=O)N1N=C(c2c(-c3ccccc3)c3cc(Cl)ccc3[nH]c2=O)CC1c1ccc(Cl)cc1 (stereo not drawn) :: < 30%
CN(C)c1ccc(C2CC(c3c(-c4ccccc4)c4cc(Cl)ccc4[nH]c3=O)=NN2C(=O)CCC(=O)O)cc1 (stereo not drawn) :: < 30%
COC(=O)CCC(=O)N1N=C(c2c(-c3ccccc3)c3cc(Cl)ccc3[nH]c2=O)CC1c1ccc(Br)cc1 (stereo not drawn) :: < 30%
COC(=O)CCCN1N=C(c2c(-c3ccc(Cl)cc3)c3ccccc3[nH]c2=O)CC1c1ccc(Cl)cc1 (stereo not drawn) :: < 30%

Q) I'd like to know its inhibition. The molecule in question is O=C(O)CCC(=O)N1N=C(c2c(-c3ccccc3)c3cc(Cl)ccc3[nH]c2=O)CC1c1ccc(Br)cc1 (stereo not drawn)
A) < 30%

Q) I'd like to know its inhibition. The molecule in question is O=C(O)CCC(=O)N1N=C(c2c(-c3ccccc3)c3cc(Cl)ccc3[nH]c2=O)CC1c1ccc(C(=O)O)cc1 (stereo not drawn)
A) < 30%

Q) I'd like to know its inhibition. The molecule in question is O=C(O)/C=C/C(=O)N1N=C(c2c(-c3ccccc3)c3cc(Cl)ccc3[nH]c2=O)CC1c1ccc(Br)cc1 (stereo not drawn)
A) < 30%
